Every entry's value here was drawn from ChEMBL document CHEMBL5500384.

- Protocol: Acute toxicity in Albino mouse assessed as change in SGPT count at 50 to 2000 mg/kg, po measured after 14 days (reference value: 52 IU/L)
- Type: organism-based
- Experimental setup: in vivo, 336 h, dose 50-2000 mg/kg, time 14 day
Endpoint label: Activity (IU/L)
Please give a number only; it is taken to be in IU/L.

{"Compound": "O=C1C(Cl)=C(N2C(=O)C(Cl)C2c2ccc([N+](=O)[O-])cc2)C(=O)c2ccccc21 (configuration not stated)", "Endpoint label": "Activity", "Numeric readout": 43.21}
{"Compound": "NC1=C(Cl)C(=O)c2ccccc2C1=O", "Endpoint label": "Activity", "Numeric readout": 26}
{"Compound": "O=C1C(Cl)=C(N2C(=O)C(Cl)C2c2ccc(Cl)cc2)C(=O)c2ccccc21 (configuration not stated)", "Endpoint label": "Activity", "Numeric readout": 42.09}
{"Compound": "CN(C)c1ccc(C2C(Cl)C(=O)N2C2=C(Cl)C(=O)c3ccccc3C2=O)cc1 (configuration not stated)", "Endpoint label": "Activity", "Numeric readout": 73}
{"Compound": "CCOc1cc(C2C(Cl)C(=O)N2C2=C(Cl)C(=O)c3ccccc3C2=O)ccc1O (configuration not stated)", "Endpoint label": "Activity", "Numeric readout": 75.33}

What does the record list as Activity for O=C1C(Cl)=C(Cl)C(=O)c2ccccc21 ? 17

What does the record list as Activity for COc1ccc(C2C(Cl)C(=O)N2C2=C(Cl)C(=O)c3ccccc3C2=O)cc1 (configuration not stated) ? 64

====

- Protocol: Acute toxicity in Albino mouse assessed as mortality at 2000 mg/kg, po after 2 to 4 hrs
- Type: organism-based
- Experimental setup: in vivo, time 2-4 hrs
Endpoint label: Activity

{"Compound": "COc1ccc(C2C(Cl)C(=O)N2C2=C(Cl)C(=O)c3ccccc3C2=O)cc1 (stereo unspecified)", "Endpoint label": "Activity", "Result": "Toxic"}
{"Compound": "O=C1C(Cl)=C(N2C(=O)C(Cl)C2c2ccc(Cl)cc2)C(=O)c2ccccc21 (stereo unspecified)", "Endpoint label": "Activity", "Result": "Toxic"}
{"Compound": "CCOc1cc(C2C(Cl)C(=O)N2C2=C(Cl)C(=O)c3ccccc3C2=O)ccc1O (stereo unspecified)", "Endpoint label": "Activity", "Result": "Toxic"}
{"Compound": "O=C1C(Cl)=C(N2C(=O)C(Cl)C2c2ccc([N+](=O)[O-])cc2)C(=O)c2ccccc21 (stereo unspecified)", "Endpoint label": "Activity", "Result": "Toxic"}
{"Compound": "NC1=C(Cl)C(=O)c2ccccc2C1=O", "Endpoint label": "Activity", "Result": "Toxic"}

What does the record list as Activity for CN(C)c1ccc(C2C(Cl)C(=O)N2C2=C(Cl)C(=O)c3ccccc3C2=O)cc1 (stereo unspecified) ? Toxic

====

- Protocol: Acute toxicity in Albino mouse assessed as change in platelet count at 50 to 2000 mg/kg, po measured after 14 days (reference value: 3.24 mm3)
- Format: organism-based
- Parameters: unit not given here
- Experimental setup: in vivo, 336 h, dose 50-2000 mg/kg, time 14 day
Endpoint label: Activity
When you answer, write just the number.

{"Molecule": "O=C1C(Cl)=C(N2C(=O)C(Cl)C2c2ccc([N+](=O)[O-])cc2)C(=O)c2ccccc21 (stereo not drawn)", "Activity": 5.95}
{"Molecule": "O=C1C(Cl)=C(N2C(=O)C(Cl)C2c2ccc(Cl)cc2)C(=O)c2ccccc21 (stereo not drawn)", "Activity": 6.1}

Now look at this entry.
What does the record list as Activity for COc1ccc(C2C(Cl)C(=O)N2C2=C(Cl)C(=O)c3ccccc3C2=O)cc1 (stereo not drawn) ? 5.82
